- assay-target: ETA (Oryctolagus cuniculus)
- Sequence (A5A8K3 21-427): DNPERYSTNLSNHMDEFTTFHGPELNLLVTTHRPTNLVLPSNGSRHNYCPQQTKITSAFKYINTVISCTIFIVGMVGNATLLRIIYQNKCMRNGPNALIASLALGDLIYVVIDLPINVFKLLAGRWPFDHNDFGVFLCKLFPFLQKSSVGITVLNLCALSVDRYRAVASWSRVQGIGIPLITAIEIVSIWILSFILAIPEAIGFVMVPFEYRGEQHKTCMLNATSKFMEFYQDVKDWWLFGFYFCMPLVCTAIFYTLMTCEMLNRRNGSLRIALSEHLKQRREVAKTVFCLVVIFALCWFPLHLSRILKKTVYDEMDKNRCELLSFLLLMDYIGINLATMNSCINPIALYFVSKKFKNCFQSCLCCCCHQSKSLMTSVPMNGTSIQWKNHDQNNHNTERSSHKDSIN
- run-parameters: ERBA-A IC50, [125I]-ET-1, rabbit renal artery vascular smooth muscle cells
This listing pairs compounds with measured IC50.

[
  {
    "compound": "C=CCOc1cc(CC2=C(c3ccc4c(c3)OCO4)C(=O)OC2(O)c2ccc(OC)cc2)ccc1OC (stereo not shown) [Example 163]",
    "assay-target": "ETA (Oryctolagus cuniculus)",
    "IC50 (nM)": 20
  },
  {
    "compound": "CCCCCCCCOc1ccc(CC2=C(c3cc(OC)cc(OC)c3)C(=O)OC2(O)c2ccc(OC)cc2)cc1OC (stereo not shown) [Example 381]",
    "assay-target": "ETA (Oryctolagus cuniculus)",
    "IC50 (nM)": 68
  },
  {
    "compound": "CSc1ccc(C2(O)OC(=O)C(c3ccc4c(c3)OCO4)=C2Cc2ccccc2)cc1 (stereo not shown) [Example 271]",
    "assay-target": "ETA (Oryctolagus cuniculus)",
    "IC50 (nM)": 390
  },
  {
    "compound": "COc1ccc(C2(O)OC(=O)C(c3cn(C)c4ccccc34)=C2Cc2ccccc2)cc1 (stereo not shown) [Example 170]",
    "assay-target": "ETA (Oryctolagus cuniculus)",
    "IC50 (nM)": 1300
  },
  {
    "compound": "CC(C)Oc1ccc(C2(O)OC(=O)C(c3ccc4c(c3)OCO4)=C2Cc2ccccc2)cc1 (stereo not shown) [Example 204]",
    "assay-target": "ETA (Oryctolagus cuniculus)",
    "IC50 (nM)": 1050
  },
  {
    "compound": "COc1cc(OC)cc(C2=C(Cc3cc(OC)c(OC)c(OC)c3)C(O)(c3ccc(OC)c(C)c3)OC2=O)c1 (stereo not shown) [Example 382]",
    "assay-target": "ETA (Oryctolagus cuniculus)",
    "IC50 (nM)": 0.9
  },
  {
    "compound": "COc1ccc(C2(O)OC(=O)C(c3ccc4c(c3)OCO4)=C2Cc2cccc(Cl)c2)cc1 (stereo not shown) [Example 75]",
    "assay-target": "ETA (Oryctolagus cuniculus)",
    "IC50 (nM)": 16
  },
  {
    "compound": "COc1ccc(C2(O)OC(=O)C(c3ccc4c(c3)OCO4)=C2Cc2cccc3ccccc23)cc1 (stereo not shown) [Example 250]",
    "assay-target": "ETA (Oryctolagus cuniculus)",
    "IC50 (nM)": 13
  },
  {
    "compound": "COc1ccc(C2(O)OC(=O)C(c3ccc(Cl)c(Cl)c3)=C2Cc2ccccc2)cc1 (stereo not shown) [Example 120]",
    "assay-target": "ETA (Oryctolagus cuniculus)",
    "IC50 (nM)": 850
  },
  {
    "compound": "COC(=O)C1CCCC(CC2=C(c3ccc4c(c3)OCO4)C(=O)OC2(O)c2ccc(OC)cc2)C1 (stereo not shown) [Example 399]",
    "assay-target": "ETA (Oryctolagus cuniculus)",
    "IC50 (nM)": 20
  }
]

----------
- assay-target: ETA (Oryctolagus cuniculus)
- assay-text: VERA-A: antagonism of ET-1 stimulated vasoconstriction in the rabbit femoral artery (ETA)
- Assay type: cell-based
- run-parameters: ET-1, rabbit femoral artery; read-out: VERA-A pA2 (converted)
Where a name gives a salt, the structure may show the parent alone.
property-label: log10(Kb) (log10 of the value in nM)

[
  {
    "molecule": "CCCOc1cccc(CC2=C(c3cc(OC)cc(OC)c3)C(=O)OC2(O)c2ccc(OC)cc2)c1 (centres unmarked)",
    "log10(Kb)": 2.30
  },
  {
    "molecule": "COC(=O)c1cccc(C/C(C(=O)c2ccc(OC)cc2)=C(/C(=O)O)c2ccc3c(c2)OCO3)c1 [Example 405, monopotassium salt]",
    "log10(Kb)": 2.40
  },
  {
    "molecule": "COc1ccc(C2(O)OC(=O)C(c3ccc4c(c3)OCO4)=C2Cc2ccc(S(C)(=O)=O)cc2)cc1 (centres unmarked)",
    "log10(Kb)": 2.80
  },
  {
    "molecule": "COc1ccc(C2(O)OC(=O)C(c3cc(OC)cc(OC)c3)=C2Cc2cccc(Cl)c2)cc1 (centres unmarked)",
    "log10(Kb)": 2.80
  },
  {
    "molecule": "COc1ccc(C2(O)OC(=O)C(c3cc(OC)cc(OC)c3)=C2Cc2cccc(C(F)(F)F)c2)cc1 (centres unmarked)",
    "log10(Kb)": 3.10
  },
  {
    "molecule": "COc1ccc(C2(O)OC(=O)C(c3ccc4c(c3)OCO4)=C2Cc2ccc(N(C)C)cc2)cc1 (centres unmarked)",
    "log10(Kb)": 2.60
  },
  {
    "molecule": "COc1ccc(C2(O)OC(=O)C(c3ccc4c(c3)OCO4)=C2Cc2ccc(OC(C)C)cc2)cc1 (centres unmarked)",
    "log10(Kb)": 2.20
  },
  {
    "molecule": "COc1ccc(C(=O)/C(Cc2ccc(OC(C)C)cc2)=C(\\C(=O)O)c2ccc3c(c2)OCO3)cc1",
    "log10(Kb)": 1.80
  },
  {
    "molecule": "COc1ccc(C2(O)OC(=O)C(c3ccc4c(c3)OCO4)=C2Cc2ccc(SC)cc2)cc1 (centres unmarked)",
    "log10(Kb)": 2.50
  },
  {
    "molecule": "COc1ccc(C2(O)OC(=O)C(c3cc(OC)c4c(c3)OCO4)=C2Cc2cc(OC)c(OC)c(OC)c2)cc1 (centres unmarked)",
    "log10(Kb)": 1.30
  },
  {
    "molecule": "COc1ccc(C2(O)OC(=O)C(c3ccc4c(c3)OCO4)=C2Cc2cccc(C(F)(F)F)c2)cc1 (centres unmarked)",
    "log10(Kb)": 3.40
  },
  {
    "molecule": "COc1ccc(C(=O)/C(Cc2ccccc2)=C(\\C(=O)O)c2ccc3c(c2)OCO3)cc1",
    "log10(Kb)": 2.80
  },
  {
    "molecule": "COc1ccc(C2(O)OC(=O)C(c3cc(OC)c4c(c3)OCO4)=C2Cc2ccccc2)cc1 (centres unmarked)",
    "log10(Kb)": 2.00
  },
  {
    "molecule": "C=CCOc1cc(CC2=C(c3ccc4c(c3)OCO4)C(=O)OC2(O)c2ccc(OC)cc2)ccc1OC (centres unmarked)",
    "log10(Kb)": 2.10
  },
  {
    "molecule": "CCCOc1cccc(CC2=C(c3ccc4c(c3)OCO4)C(=O)OC2(O)c2ccc(OC)cc2)c1 (centres unmarked)",
    "log10(Kb)": 2.00
  },
  {
    "molecule": "COc1cc(OC)cc(/C(C(=O)O)=C(\\Cc2ccc(NC(C)=O)cc2)C(=O)c2ccc(OC)c(C)c2)c1",
    "log10(Kb)": 2.10
  },
  {
    "molecule": "COc1ccc(C2(O)OC(=O)C(c3ccc4c(c3)OCO4)=C2Cc2ccc(NC(C)=O)cc2)cc1C (centres unmarked)",
    "log10(Kb)": 1.70
  },
  {
    "molecule": "COc1ccc(C2(O)OC(=O)C(c3cc(OC)cc(OC)c3)=C2Cc2cc(OC)c(OC)c(OC)c2)cc1 (centres unmarked)",
    "log10(Kb)": 2.00
  },
  {
    "molecule": "COc1ccc(C2(O)OC(=O)C(c3cc(OC)c4c(c3)OCO4)=C2Cc2ccccc2)cc1C (centres unmarked)",
    "log10(Kb)": 2.00
  },
  {
    "molecule": "COc1ccc(C2(O)OC(=O)C(c3ccc4c(c3)OCO4)=C2Cc2ccc(OC)c(C)c2C)cc1 (centres unmarked)",
    "log10(Kb)": 2.30
  }
]
